Value source: paper PMC10452110

# Tested on: Staphylococcus aureus (ATCC 25923)
# Assay: Intrinsic antimicrobial activity (MIC) against S. aureus
# Assay type: cell-based
# Details: ATCC25923, S. aureus ATCC 25923, mean (n = 3), read-out: MIC S. a
Quantity name: log10 MIC (log10 of the value in µM)

{"columns": ["Molecule", "Quantitative result"],
 "data": [
  ["Cc1ccc2[nH]cc(CC(=O)NCCCNCCCCCCCNCCCNC(=O)Cc3c[nH]c4ccc(C)cc34)c2c1.O=C(O)C(F)(F)F.O=C(O)C(F)(F)F [Compound 17c]", 1.79],
  ["COc1ccc2[nH]cc(CC(=O)NCCCNCCCCCCCCCCNCCCNC(=O)Cc3c[nH]c4ccc(OC)cc34)c2c1.O=C(O)C(F)(F)F.O=C(O)C(F)(F)F [Compound 16e]", 0.85],
  ["O=C(Cc1c[nH]c2ccc(Br)cc12)NCCCNCCCCCCCCCCNCCCNC(=O)Cc1c[nH]c2ccc(Br)cc12.O=C(O)C(F)(F)F.O=C(O)C(F)(F)F [Compound 15e]", 0.80],
  ["COc1cccc2c(CC(=O)NCCCNCCCCCCNCCCNC(=O)Cc3c[nH]c4c(OC)cccc34)c[nH]c12.O=C(O)C(F)(F)F.O=C(O)C(F)(F)F [Compound 19b]", 1.48],
  ["COc1cccc2c(CC(=O)NCCCNCCCCCCCCNCCCNC(=O)Cc3c[nH]c4c(OC)cccc34)c[nH]c12.O=C(O)C(F)(F)F.O=C(O)C(F)(F)F [Compound 19d]", 2.06],
  ["Cc1cccc2c(CC(=O)NCCCNCCCCCCCCNCCCNC(=O)Cc3c[nH]c4c(C)cccc34)c[nH]c12.O=C(O)C(F)(F)F.O=C(O)C(F)(F)F [Compound 20d]", 1.48]
]}
